Reported pKi values follow for various compounds
Sequence of the target: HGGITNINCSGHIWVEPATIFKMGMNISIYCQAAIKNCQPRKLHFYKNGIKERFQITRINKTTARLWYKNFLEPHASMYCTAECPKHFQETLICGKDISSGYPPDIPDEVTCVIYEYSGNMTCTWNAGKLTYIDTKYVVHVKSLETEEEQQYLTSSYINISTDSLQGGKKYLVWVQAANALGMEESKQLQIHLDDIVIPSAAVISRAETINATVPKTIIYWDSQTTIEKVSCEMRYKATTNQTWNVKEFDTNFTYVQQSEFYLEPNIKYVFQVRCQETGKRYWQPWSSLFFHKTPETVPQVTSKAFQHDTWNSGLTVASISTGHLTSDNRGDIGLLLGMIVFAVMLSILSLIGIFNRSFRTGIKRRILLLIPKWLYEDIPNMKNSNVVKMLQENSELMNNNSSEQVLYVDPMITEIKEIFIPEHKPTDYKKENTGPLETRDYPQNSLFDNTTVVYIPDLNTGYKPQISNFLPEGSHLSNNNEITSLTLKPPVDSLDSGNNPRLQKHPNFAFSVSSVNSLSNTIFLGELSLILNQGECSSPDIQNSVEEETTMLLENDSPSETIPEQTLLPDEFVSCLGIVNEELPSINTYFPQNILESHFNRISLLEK
pKi: −log10 of the molar value. *1 amine or outer side, *2 acyl side, *3 side chain or, on linkers, in order; H or OH if unused. Where a SMILES comes first, the peptide text is derived from it. Bridges are numbered along the chain shown (N, C = ends). [ ]: non-standard residue; d: D form. 2Nal = N[C@@H](Cc1ccc2ccccc2c1)C(=O)O; AEF = NCCOc1ccc(C[C@H](N)C(=O)O)cc1; X1 = O=C(Cc1ccc(CN[*:1])cc1)[*:2]; αMeL = CC(C)C[C@](C)(N)C(=O)O; CH2COCH2 = O=C(C[*:1])C[*:2]; 3Amb = NCc1cccc(C(=O)O)c1

compound	pKi
CC(C)C[C@]1(C)NC(=O)[C@H](Cc2ccc3ccccc3c2)NC(=O)[C@H](Cc2ccc(OCCN)cc2)NC(=O)[C@@H]2CCNC(=O)CC[C@H](NC(=O)[C@H](CO)NC(=O)Cc3ccc(cc3)CNC(=O)CC[C@@H](C(=O)N[C@@H](CCN)C(=O)N[C@@H](Cc3cccnc3)C(N)=O)NC1=O)C(=O)N[C@@H](Cc1c[nH]c3ccccc13)C(=O)N[C@@H](CCC(N)=O)C(=O)N2 [Ref 122, reference compound]	11.27
CC(=O)N[C@@H](CC(=O)O)C(=O)N[C@H]1CCC(=O)NCCCC[C@@H](C(=O)N[C@@H](CCCNC(=N)N)C(N)=O)NC(=O)[C@H](CC(C)C)NC(=O)[C@H](Cc2ccc3ccccc3c2)NC(=O)[C@H](Cc2c[nH]c3ccccc23)NC(=O)[C@@H]2CSCC(=O)CSC[C@H](NC(=O)[C@H](CO)NC1=O)C(=O)N[C@@H](Cc1c[nH]c3ccccc13)C(=O)N[C@@H](CCC(N)=O)C(=O)N2 [Ref 17, reference compound]	7.15
CC(C)C[C@]1(C)NC(=O)[C@H](Cc2ccc3ccccc3c2)NC(=O)[C@H](Cc2ccc(OCCN)cc2)NC(=O)[C@@H]2CSCC(=O)CSC[C@H](NC(=O)[C@H](CO)NC(=O)Cc3ccc(cc3)CNC(=O)CC[C@@H](C(=O)N[C@@H](CCCNC(=N)N)C(N)=O)NC1=O)C(=O)N[C@@H](Cc1c[nH]c3ccccc13)C(=O)N[C@@H](CCC(N)=O)C(=O)N2 [Ref 52, reference compound] ([X1]SCWQC[AEF][2Nal][αMeL]ER-NH2; linker 3-6 via CH2COCH2; lactam N-10)	10.32
CC(C)C[C@]1(C)NC(=O)[C@H](Cc2ccc3ccccc3c2)NC(=O)[C@H](Cc2ccc(OCCN)cc2)NC(=O)[C@@H]2CSCC(=O)CSC[C@H](NC(=O)[C@H](CO)NC(=O)c3cccc(c3)CNC(=O)CC[C@@H](C(=O)N[C@H](CCCNC(=N)N)C(N)=O)NC1=O)C(=O)N[C@@H](Cc1c[nH]c3ccccc13)C(=O)N[C@@H](CCC(N)=O)C(=O)N2 [Ref 41, reference compound] ([3Amb]SCWQC[AEF][2Nal][αMeL]E[dR]-NH2; linker 3-6 via CH2COCH2; lactam N-10)	8.64

----------
Target protein (sequence): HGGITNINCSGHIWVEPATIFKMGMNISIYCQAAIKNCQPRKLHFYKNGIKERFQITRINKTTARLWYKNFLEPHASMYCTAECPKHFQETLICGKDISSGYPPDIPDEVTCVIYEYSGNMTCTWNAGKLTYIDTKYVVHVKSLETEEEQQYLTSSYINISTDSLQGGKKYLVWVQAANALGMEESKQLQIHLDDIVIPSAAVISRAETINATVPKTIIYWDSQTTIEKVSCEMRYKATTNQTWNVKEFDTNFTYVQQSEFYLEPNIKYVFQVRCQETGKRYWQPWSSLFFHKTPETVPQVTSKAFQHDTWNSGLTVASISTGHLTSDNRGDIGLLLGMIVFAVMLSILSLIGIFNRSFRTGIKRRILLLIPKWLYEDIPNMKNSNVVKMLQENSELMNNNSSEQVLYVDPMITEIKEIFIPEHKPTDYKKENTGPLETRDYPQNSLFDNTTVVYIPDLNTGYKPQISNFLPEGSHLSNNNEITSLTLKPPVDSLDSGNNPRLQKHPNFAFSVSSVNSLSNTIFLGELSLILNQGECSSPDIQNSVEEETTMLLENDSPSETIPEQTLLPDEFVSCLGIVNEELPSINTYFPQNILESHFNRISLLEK
Where a SMILES comes first, the peptide text is derived from it. Bridges are numbered along the chain shown (N, C = ends). [ ]: non-standard residue; d: D form. 2Nal = N[C@@H](Cc1ccc2ccccc2c1)C(=O)O; AEF = NCCOc1ccc(C[C@H](N)C(=O)O)cc1; 3Pal = N[C@@H](Cc1cccnc1)C(=O)O; αMeL = CC(C)C[C@](C)(N)C(=O)O; dOrn = NCCC[C@@H](N)C(=O)O; dDab = NCC[C@@H](N)C(=O)O; Dab = NCC[C@H](N)C(=O)O

molecule	IC50 (nM)
CC(C)[C@@H]1NC(=O)[C@H]([C@@H](C)O)NC(=O)[C@@H]2CCCCNC(=O)CC[C@@H]3NC(=O)[C@H](CCNC(=O)[C@H](Cc4cccnc4)NC(=O)[C@H](CCN)NC3=O)NC(=O)[C@H](Cc3ccc4ccccc4c3)NC(=O)[C@H](Cc3ccc(OCCN)cc3)NC(=O)[C@H](CCC(=O)N2)NC(=O)[C@H](CCC(N)=O)NC(=O)[C@H](Cc2c[nH]c3ccccc23)NC1=O [Compound 76] (KTVWQE[AEF][2Nal][Dab]E[Dab][3Pal]; lactam 1-10, 9-C, N-6)	3.7
CC(C)C[C@]1(C)NC(=O)[C@H](Cc2ccc3ccccc3c2)NC(=O)[C@H](Cc2ccc(OCCN)cc2)NC(=O)[C@@H]2CC(=O)N[C@H](CCCNC(=O)CC[C@@H](C(=O)N[C@@H](CCN)C(=O)N[C@@H](Cc3cccnc3)C(N)=O)NC1=O)C(=O)N[C@@H]([C@@H](C)O)C(=O)N[C@@H](C(C)C)C(=O)N[C@@H](Cc1c[nH]c3ccccc13)C(=O)N[C@@H](CCC(N)=O)C(=O)N2 [Compound 10] ([dOrn]TVWQD[AEF][2Nal][αMeL]E[Dab][3Pal]-NH2; lactam 1-10, N-6)	0.67
CC(C)C[C@]1(C)NC(=O)[C@H](Cc2ccc3ccccc3c2)NC(=O)[C@H](Cc2ccc(OCCN)cc2)NC(=O)[C@@H]2CC(=O)N[C@H](CCNC(=O)CC[C@@H](C(=O)N[C@@H](CCN)C(=O)N[C@@H](Cc3cccnc3)C(N)=O)NC1=O)C(=O)N[C@@H]([C@@H](C)O)C(=O)N[C@@H](C(C)C)C(=O)N[C@@H](Cc1c[nH]c3ccccc13)C(=O)N[C@@H](CCC(N)=O)C(=O)N2 [Compound 11] ([dDab]TVWQD[AEF][2Nal][αMeL]E[Dab][3Pal]-NH2; lactam 1-10, N-6)	0.37
CNC(=O)[C@H](Cc1cccnc1)NC(=O)[C@H](CCN)NC(=O)[C@@H]1CCC(=O)N[C@H]2CCNC(=O)CC[C@H](NC(=O)[C@H](CCC(N)=O)NC(=O)[C@H](Cc3c[nH]c4ccccc34)NC(=O)CNC2=O)C(=O)N[C@@H](Cc2ccc(OCCN)cc2)C(=O)N[C@@H](Cc2ccc3ccccc3c2)C(=O)N[C@@](C)(CC(C)C)C(=O)N1 [Compound 105]	11
CC(C)[C@@H]1NC(=O)[C@H]([C@@H](C)O)NC(=O)[C@@H]2CCCCNC(=O)CC[C@@H]3NC(=O)[C@H](CCCCNC(=O)[C@H](Cc4cccnc4)NC(=O)[C@H](CCN)NC3=O)NC(=O)[C@H](Cc3ccc4ccccc4c3)NC(=O)[C@H](Cc3ccc(OCCN)cc3)NC(=O)[C@H](CCC(=O)N2)NC(=O)[C@H](CCC(N)=O)NC(=O)[C@H](Cc2c[nH]c3ccccc23)NC1=O [Compound 77]	9.9
CC[C@H](C)[C@@H]1NC(=O)[C@@H]2CCCCNC(=O)CC[C@@H](C(=O)N3CCNC3C(=O)N[C@@H](Cc3cccnc3)C(=O)NC)NC(=O)[C@](C)(CC(C)C)NC(=O)[C@H](Cc3ccc4ccccc4c3)NC(=O)[C@H](Cc3ccc(OCCN)cc3)NC(=O)[C@H](CCC(=O)N2)NC(=O)[C@H](CCC(N)=O)NC(=O)[C@H](Cc2c[nH]c3ccccc23)NC(=O)[C@H](C(C)C)NC1=O (stereo partly shown) [Compound 72]	99
CNC(=O)[C@H](Cc1cccnc1)NC(=O)[C@H](CCN)NC(=O)[C@@H]1CCC(=O)NCCCC[C@@H]2NC(=O)CC[C@H](NC(=O)[C@H](CCC(N)=O)NC(=O)[C@H](Cc3c[nH]c4ccccc34)NC(=O)CCNC2=O)C(=O)N[C@@H](Cc2ccccn2)C(=O)N[C@@H](Cc2ccc3ccccc3c2)C(=O)N[C@@](C)(CC(C)C)C(=O)N1 [Compound 84]	0.11
CC[C@H](C)[C@@H]1NC(=O)[C@@H]2CCCCNC(=O)CC[C@@H](C(=O)N[C@@H](CCN)C(=O)N[C@@H](Cc3cccnc3)C(=O)NC)NC(=O)[C@](C)(CC(C)C)NC(=O)[C@H](Cc3ccc4ccccc4c3)NC(=O)[C@H](Cc3ccc(OCCN)cc3)NC(=O)[C@H](CCC(=O)N2)NC(=O)[C@H](CCC(N)=O)NC(=O)[C@H](Cc2c[nH]c3ccccc23)NC(=O)[C@H](C(C)C)NC1=O [Compound 60]	0.049
CC(C)C[C@]1(C)NC(=O)[C@H](Cc2ccc3ccccc3c2)NC(=O)[C@H](Cc2ccc(OCCN)cc2)NC(=O)[C@@H]2CCC(=O)N[C@H](CCCCCNC(=O)CC[C@@H](C(=O)N[C@@H](CCN)C(=O)N[C@@H](Cc3cccnc3)C(N)=O)NC1=O)C(=O)N[C@@H]([C@@H](C)O)C(=O)N[C@@H](C(C)C)C(=O)N[C@@H](Cc1c[nH]c3ccccc13)C(=O)N[C@@H](CCC(N)=O)C(=O)N2 [Compound 5]	0.037
COc1ccc(C[C@@H]2NC(=O)[C@@H]3CCC(=O)N[C@@H](CCCCNC(=O)CC[C@@H](C(=O)N[C@@H](CCCCNC(=O)Cc4ccccn4)C(N)=O)NC(=O)[C@](C)(CC(C)C)NC(=O)[C@H](Cc4ccc5ccccc5c4)NC2=O)C(=O)N[C@@H]([C@@H](C)O)C(=O)N[C@@H](C(C)C)C(=O)N[C@@H](Cc2c[nH]c4ccccc24)C(=O)N[C@@H](CCC(N)=O)C(=O)N3)cc1 [Compound 48]	290
